- System: HL-60
- procedure.details: In vitro inhibitory concentration against proliferation of HL60 cells
- Format: functional, cell-based, Homo sapiens
- measurement.parameters: hl-60
measured.metric: pIC50
As a rule, pIC50 stands for the negative log10 of the concentration, concentration in M.

Query: May I ask what pIC50 has been recorded for `CISPLATIN` ?
Response: 6.22

###

- System: HL-60
- procedure.details: In vitro inhibitory concentration against proliferation of HL60 cells
- Type: functional, cell-based, Homo sapiens
- measurement.parameters: Homo sapiens, HL-60
measured.metric: IC50 (nM)
Numbers only here, please. The scale is nM.

Examples from the recorded data:
smi=COc1cc(/C=C/c2ccc(OC)c(N)c2)cc(OC)c1 measured_metric=IC50 value=4000
smi=O=c1[nH]cc(F)c(=O)[nH]1 measured_metric=IC50 value=1500
smi=COc1ccc(/C=C/c2cc(O)cc(O)c2)cc1O measured_metric=IC50 value=48000

Query: Reported IC50 for `COc1cc(/C=C/c2ccc(O)c(O)c2)cc(OC)c1` : what is it?
Response: 800

Source: ChEMBL document CHEMBL1144989
